Hello, the source for this data is PubChem BioAssay AID1159580, in case you need it.

For each entry below, report its normalized growth value.
assay: chemical genetic growth profiling, strain panel (AID 1159580);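 also: tested at 20 µM; growth read once vehicle control cultures reached saturation at 30 °C; 1 = growth at the plate median or of vehicle wells; lower values mean less growth of the strain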; settings: S. cerevisiae deletion strains, growth OD, locus YDR297W, strain sur2, stronger effect = lower value
The campaign covered roughly 5,500 compounds. About 2,000 (36%) were called active. Not shown: some 18% with an inconclusive outcome. The list shows a part of the results.

Batch lookup, normalized growth per entry.
1. CC(C)[C@H](N)C(=O)OCCOCn1cnc2c(=O)[nH]c(N)nc21
2. COc1ccc(-c2cc(=O)c3c(O)cc(OC)c(OC)c3o2)c(OC)c1
3. CCC1(c2ccccc2)C(=O)NCNC1=O
4. COc1ccc(C[C@H]2NC[C@H](O)[C@H]2OC(C)=O)cc1
5. CCC1(C)CC(=O)NC1=O (configuration not stated)
6. OC(CCN1CCCCC1)(c1ccccc1)c1ccccc1
7. COc1ccc(C(=O)c2ccccc2O)c(O)c1
8. C1CCc2nnnn2CC1

Response:
["1 (inactive)", "1.02 (inactive)", "1.01 (inactive)", "0.838 (active)", "0.981 (inactive)", "0.984 (inactive)", "0.878 (active)", "1.02 (inactive)"]

Batch lookup, normalized growth per entry.
1. CC(=O)OCC(CCn1cnc2cnc(N)nc21)COC(C)=O
2. CC(C)[N+](C)(CCOC(=O)C1c2ccccc2Oc2ccccc21)C(C)C
3. COc1cc(O)c(C(=O)c2ccccc2)cc1O
4. COc1c2c(c(CC=C(C)C)c3oc(=O)c(-c4ccc(O)cc4)c(O)c13)OC(C)(C)C=C2

Response:
1. 0.987 (inactive)
2. 0.999 (inactive)
3. 0.99 (inactive)
4. 0.847 (active)

====

assay: chemical genetic growth profiling, strain panel (AID 1159580);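 also: tested at 20 µM; growth read once vehicle control cultures reached saturation at 30 °C; 1 = growth at the plate median or of vehicle wells; lower values mean less growth of the strain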; details: S. cerevisiae deletion strains, growth OD, locus YER015W, strain faa2, stronger effect = lower value
Hit rate of the full screen: of about 5,500 compounds, about 2,000 (36%) were called active. Not shown: some 18% with an inconclusive outcome. The list shows a part of the results.
experimental_readout: normalized growth
Numbers only.

As a guide, the following entries are already answered.
{"molecule": "CCCCCC(C)N (configuration not stated)", "test_value": 1.02}
{"molecule": "CC[C@H]1OC(=O)C[C@@H](O)[C@H](C)[C@@H](O[C@@H]2O[C@H](C)[C@@H](O[C@H]3C[C@@](C)(O)[C@@H](O)[C@H](C)O3)[C@H](N(C)C)[C@H]2O)[C@@H](CC=O)C[C@@H](C)C(=O)/C=C/C(C)=C/[C@@H]1CO[C@@H]1O[C@H](C)[C@@H](O)[C@@H](OC)[C@H]1OC", "test_value": 0.99}
{"molecule": "CC[C@@H](CO)NCCN[C@@H](CC)CO", "test_value": 1.01}
{"molecule": "COc1ccc2c(c1)OC[C@@H](Cc1ccc(OC)c(OC)c1)[C@H]2O", "test_value": 1.01}
{"molecule": "CCSC(=N)N", "test_value": 1.01}

Batch lookup, normalized growth per entry.
1. COc1cc(OC)c2c(c1)O[C@H](c1ccc(OC)c(OC)c1)[C@@H](O)C2
2. NCC1CCCCC1CC(=O)O (configuration not stated)

Response:
1.01
1.03

====

assay: chemical genetic growth profiling, strain panel (AID 1159580);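 also: tested at 20 µM; growth read once vehicle control cultures reached saturation at 30 °C; 1 = growth at the plate median or of vehicle wells; lower values mean less growth of the strain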; details: S. cerevisiae deletion strains, growth OD, locus YLR058C, strain SHM2, stronger effect = lower value
Out of some 5,500 compounds screened, about 2,000 (36%) were called active. Roughly 18% stayed inconclusive and do not appear here. This is one part of the list.
experimental_readout: normalized growth
Numbers only.

{"molecule": "CCC1(C)CC(=O)NC1=O (configuration not stated)", "normalized growth": 1.02}
{"molecule": "COc1cc(O)c2c(=O)cc(C)oc2c1CC=C(C)C", "normalized growth": 0.912}
{"molecule": "Oc1ccc(O)cc1", "normalized growth": 1.01}
{"molecule": "CN1Cc2c(ccc3c2OCO3)C2C(O)Cc3cc4c(cc3C21)OCO4 (configuration not stated)", "normalized growth": 0.992}
{"molecule": "CCC1(c2ccc(N)cc2)CCC(=O)NC1=O (configuration not stated)", "normalized growth": 1.01}

Batch lookup, normalized growth per entry.
1. COc1c(O)cc2oc3cc(O)c(CC=C(C)C)c(O)c3c(=O)c2c1CC=C(C)C
2. O=[N+]([O-])O[C@H]1CO[C@H]2[C@@H]1OC[C@H]2O[N+](=O)[O-]
3. CCC1(c2ccccc2)C(=O)NCNC1=O

Response:
[0.642, 1.01, 1.01]
